Value source: the supplement of paper PMC6555819

Test system: LXRa homodimer (NR concentration 270 nM)
Experiment: PBM binding z-score (relative to random genomic background probes); higher = stronger binding; sequences stand for … in GC…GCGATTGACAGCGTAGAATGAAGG
Measured Quantity: PBM binding z-score
API note: the answer field is a bare number with no unit suffix.

// below: answered sequences
>>> number("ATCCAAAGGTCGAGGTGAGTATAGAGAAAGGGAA")
0.242
>>> number("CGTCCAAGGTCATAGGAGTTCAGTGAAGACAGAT")
5.13
>>> number("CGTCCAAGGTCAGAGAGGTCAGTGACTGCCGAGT")
3.23
>>> number("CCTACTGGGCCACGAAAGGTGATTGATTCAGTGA")
-0.496
>>> number("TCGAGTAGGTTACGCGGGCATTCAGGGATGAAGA")
-0.0246
>>> number("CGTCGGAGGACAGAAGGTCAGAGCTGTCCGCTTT")
0.0253
>>> number("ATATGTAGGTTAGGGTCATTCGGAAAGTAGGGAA")
1.22
>>> number("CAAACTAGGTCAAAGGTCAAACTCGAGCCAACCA")
6.78

Problem: Please report the recorded PBM binding z-score for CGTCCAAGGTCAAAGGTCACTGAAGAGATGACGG .
Result: 4.53

Problem: And what about the sequence CTTTGTAGGTTAAGGGGGTCATTCAGTTTGAAAG ?
Result: 3.53

Problem: And what about the sequence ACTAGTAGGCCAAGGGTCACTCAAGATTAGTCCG ?
Result: 0.417

Problem: And what about the sequence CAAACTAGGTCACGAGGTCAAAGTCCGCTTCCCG ?
Result: 5.08

* * *

System: LXRa homodimer (NR concentration 270 nM)
Assay: PBM binding z-score (relative to random genomic background probes); higher = stronger binding; sequences stand for … in GC…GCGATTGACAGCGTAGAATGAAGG
Measured Quantity: PBM binding z-score

Problem: Please report the recorded PBM binding z-score for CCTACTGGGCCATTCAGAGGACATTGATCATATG .
Result: 0.339

Problem: And what about the sequence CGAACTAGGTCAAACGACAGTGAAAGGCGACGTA ?
Result: 0.0143

Problem: And what about the sequence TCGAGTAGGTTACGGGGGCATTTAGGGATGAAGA ?
Result: 0.674

Problem: And what about the sequence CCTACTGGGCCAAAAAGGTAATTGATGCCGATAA ?
Result: -0.561

Problem: And what about the sequence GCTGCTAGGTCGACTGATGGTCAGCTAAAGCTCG ?
Result: -0.803

Problem: And what about the sequence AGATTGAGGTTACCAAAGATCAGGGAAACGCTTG ?
Result: 0.108

Problem: And what about the sequence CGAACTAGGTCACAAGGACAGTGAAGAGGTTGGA ?
Result: 0.193

Problem: And what about the sequence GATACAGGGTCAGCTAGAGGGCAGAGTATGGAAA ?
Result: 0.31

Problem: And what about the sequence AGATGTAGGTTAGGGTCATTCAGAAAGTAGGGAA ?
Result: 1.53

Problem: And what about the sequence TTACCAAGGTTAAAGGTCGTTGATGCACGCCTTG ?
Result: 1.51

Problem: And what about the sequence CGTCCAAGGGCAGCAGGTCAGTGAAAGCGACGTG ?
Result: -0.847

Problem: And what about the sequence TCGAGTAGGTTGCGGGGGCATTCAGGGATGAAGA ?
Result: 0.68

Problem: And what about the sequence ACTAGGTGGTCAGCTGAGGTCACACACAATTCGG ?
Result: 2.31

Problem: And what about the sequence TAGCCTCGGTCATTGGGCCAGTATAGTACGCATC ?
Result: 0.605

* * *

PBM binding z-score listing for selected sequences.
Test system: LXRb homodimer (NR concentration 270 nM)
Test: PBM binding z-score (relative to random genomic background probes); higher = stronger binding; sequences stand for … in GC…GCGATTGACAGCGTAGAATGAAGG
API note: the answer field is a bare number with no unit suffix.

// below: answered sequences
>>> number("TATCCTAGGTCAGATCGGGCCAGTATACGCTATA")
1.81
>>> number("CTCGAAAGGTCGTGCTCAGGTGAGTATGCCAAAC")
-0.0304
>>> number("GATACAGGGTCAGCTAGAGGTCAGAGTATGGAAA")
0.386
>>> number("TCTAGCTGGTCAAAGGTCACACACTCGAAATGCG")
0.629
>>> number("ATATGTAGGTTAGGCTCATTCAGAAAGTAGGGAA")
0.223

Problem: Please report the recorded PBM binding z-score for GGAACGAGGGCATTCGAGTTGATAGCATGGCGAT .
Result: -0.345

Problem: And what about the sequence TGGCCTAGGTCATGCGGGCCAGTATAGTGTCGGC ?
Result: -1.55

Problem: And what about the sequence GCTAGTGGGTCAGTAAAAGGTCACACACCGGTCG ?
Result: 0.38

Problem: And what about the sequence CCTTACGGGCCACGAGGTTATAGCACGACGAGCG ?
Result: -0.806

Problem: And what about the sequence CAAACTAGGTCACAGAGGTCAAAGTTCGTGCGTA ?
Result: 2.18

Problem: And what about the sequence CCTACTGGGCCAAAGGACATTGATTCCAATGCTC ?
Result: -0.465

Problem: And what about the sequence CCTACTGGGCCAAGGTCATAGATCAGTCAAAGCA ?
Result: -0.469

Problem: And what about the sequence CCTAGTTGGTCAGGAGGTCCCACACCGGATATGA ?
Result: 0.251

Problem: And what about the sequence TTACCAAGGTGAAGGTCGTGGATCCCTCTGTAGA ?
Result: -0.935

Problem: And what about the sequence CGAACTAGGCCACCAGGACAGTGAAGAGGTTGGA ?
Result: -0.94

Problem: And what about the sequence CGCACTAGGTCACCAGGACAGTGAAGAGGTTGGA ?
Result: -0.125

Problem: And what about the sequence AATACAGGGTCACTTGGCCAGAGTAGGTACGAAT ?
Result: 1.54

* * *

System: PPARg:RXRa 270nM:90nM, anti-RXR (NR concentration 270 nM, RXRa partner concentration 90 nM)
Test: PBM binding z-score (relative to random genomic background probes); higher = stronger binding; sequences stand for … in GC…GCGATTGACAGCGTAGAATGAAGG
PBM binding z-score listing for selected sequences.
API note: the answer field is a bare number with no unit suffix.

Problem: Please report the recorded PBM binding z-score for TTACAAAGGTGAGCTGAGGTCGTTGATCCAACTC .
Result: 2.39

* * *

Tested on: LXRb:RXRa (NR concentration 270 nM, RXRa partner concentration 90 nM)
Experiment: PBM binding z-score (relative to random genomic background probes); higher = stronger binding; sequences stand for … in GC…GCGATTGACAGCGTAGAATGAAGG
Measured Quantity: PBM binding z-score
API note: the answer field is a bare number with no unit suffix.

>>> number("CCTAGTTGGTCAGGAGGCCACACACCGGATATGA")
0.191
>>> number("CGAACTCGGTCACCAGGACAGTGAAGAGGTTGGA")
-0.176
>>> number("CTATGTAGGATAAGGGGGTCATTCAGTTTGAAAG")
5.97
>>> number("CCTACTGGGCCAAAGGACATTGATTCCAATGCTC")
-0.127
>>> number("CTATGTAGATTAAGGGGGTCATTCAGTTTGAAAG")
6.12

Problem: Please report the recorded PBM binding z-score for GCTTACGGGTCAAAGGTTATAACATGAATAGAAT .
Result: 5.89

Problem: And what about the sequence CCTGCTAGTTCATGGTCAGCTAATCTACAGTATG ?
Result: 0.106

Problem: And what about the sequence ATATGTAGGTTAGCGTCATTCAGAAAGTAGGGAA ?
Result: 0.174

Problem: And what about the sequence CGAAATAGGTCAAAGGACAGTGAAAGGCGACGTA ?
Result: 3.47

* * *

Tested on: LXRa:RXRa (NR concentration 270 nM, RXRa partner concentration 90 nM)
Assay: PBM binding z-score (relative to random genomic background probes); higher = stronger binding; sequences stand for … in GC…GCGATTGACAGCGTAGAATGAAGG
Answer NO if PBM binding z-score is under 3, and YES if it is 3 or more.

Examples from the recorded data:
>>> assigned_category("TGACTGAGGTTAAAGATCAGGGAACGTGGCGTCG")
"NO"
>>> assigned_category("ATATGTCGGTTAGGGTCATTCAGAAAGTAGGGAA")
"YES"
>>> assigned_category("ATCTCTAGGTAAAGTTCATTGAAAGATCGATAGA")
"YES"

Problem: In plain terms: is recorded PBM binding z-score at least 3 for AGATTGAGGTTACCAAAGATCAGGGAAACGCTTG ?
Result: YES

Problem: And what about the sequence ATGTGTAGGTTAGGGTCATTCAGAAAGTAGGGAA ?
Result: YES

Problem: And what about the sequence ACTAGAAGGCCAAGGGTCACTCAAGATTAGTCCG ?
Result: YES

Problem: And what about the sequence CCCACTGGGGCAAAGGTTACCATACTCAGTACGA ?
Result: NO

Problem: And what about the sequence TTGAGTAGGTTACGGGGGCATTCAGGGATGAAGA ?
Result: YES
